Cited source: patent US10093660B2

- Experimental system: MNK1a (Homo sapiens (Human), UniProt Q9BUB5)
- Sequence (Q9BUB5 other isoform, or with tags, fused parts or gaps): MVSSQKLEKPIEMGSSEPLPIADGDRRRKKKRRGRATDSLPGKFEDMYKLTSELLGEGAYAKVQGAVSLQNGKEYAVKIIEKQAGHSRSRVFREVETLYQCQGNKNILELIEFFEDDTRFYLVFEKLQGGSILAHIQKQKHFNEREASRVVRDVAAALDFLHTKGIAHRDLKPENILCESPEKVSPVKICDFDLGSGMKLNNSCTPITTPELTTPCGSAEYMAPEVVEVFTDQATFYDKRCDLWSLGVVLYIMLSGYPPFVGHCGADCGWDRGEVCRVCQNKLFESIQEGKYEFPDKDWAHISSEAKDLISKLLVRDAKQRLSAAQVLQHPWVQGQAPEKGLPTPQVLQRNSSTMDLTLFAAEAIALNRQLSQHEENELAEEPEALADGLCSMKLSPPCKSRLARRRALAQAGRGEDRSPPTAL
- Protocol text: MNK1 in vitro kinase assay (Assay 3), Z'-LYTE
- Format: biochemical
- Run conditions: compound concentration of 1 μM, read-out: MNK1 % INH
Tick yes if inhibition at 1 µM is 90% or greater. Tick no if inhibition at 1 µM is less than 90%.

See these solved cases before continuing.
{"columns": ["Compound", "Experimental system", "Group"],
 "data": [
  ["CO[C@@H]1CNC[C@H]1Oc1cc(F)ccc1Nc1ncnc2cc(N=S3(=O)CCCC3)cc(C)c12", "MNK1a (Homo sapiens (Human), UniProt Q9BUB5)", "no"],
  ["Cc1cc(N=S2(=O)CCC(O)CC2)cc2ncnc(Nc3ccc(F)cc3O[C@@H]3COC[C@@H]3O)c12 (mixture of isomers)", "MNK1a (Homo sapiens (Human), UniProt Q9BUB5)", "yes"],
  ["Cc1cc(N=S(C)(C)=O)cc2ncnc(Nc3ccc(F)cc3O[C@@H]3CN(C)C[C@H]3O)c12", "MNK1a (Homo sapiens (Human), UniProt Q9BUB5)", "no"],
  ["Cc1cc(N=S(C)(C)=O)cc2ncnc(Nc3cccnc3O[C@@H]3CN(S(C)(=O)=O)C[C@H]3O)c12", "MNK1a (Homo sapiens (Human), UniProt Q9BUB5)", "no"]
]}

Inquiry: Is the recorded value of inhibition at 1 µM equal to or greater than 90% for this compound? `COc1cc(N=S2(=O)CCCC2)cc2ncnc(Nc3ccc(Cl)nc3O[C@H]3COC[C@@H]3O)c12`
Reply text: yes

Inquiry: Is the recorded value of inhibition at 1 µM equal to or greater than 90% for this compound? `Cc1cc(N=S2(=O)CCCC2)cc2ncnc(Nc3ccc(F)cc3O[C@@H]3CN(C)C[C@H]3O)c12`
Reply text: no

Inquiry: Is the recorded value of inhibition at 1 µM equal to or greater than 90% for this compound? Cc1cc(N=S(C)(C)=O)cc2ncnc(Nc3ccc(F)cc3O[C@H]3COC[C@H]3OC3COC3)c12 (racemic)
Reply text: yes

Inquiry: Is the recorded value of inhibition at 1 µM equal to or greater than 90% for this compound? `CS(C)(=O)=Nc1cc(OC(F)F)c2c(Nc3ccc(F)cc3O[C@H]3COC[C@@H]3O)ncnc2c1`
Reply text: no

Inquiry: Is the recorded value of inhibition at 1 µM equal to or greater than 90% for this compound? `CO[C@@H]1CN(C)C[C@H]1Oc1ncccc1Nc1ncnc2cc(N=S(C)(C)=O)cc(C)c12`
Reply text: no

Inquiry: Is the recorded value of inhibition at 1 µM equal to or greater than 90% for this compound? COc1cc(N=S2(=O)CCC(C)C2)cc2ncnc(Nc3ccc(F)cc3O[C@H]3COC[C@H]3O)c12 (mixture of isomers)
Reply text: yes

Inquiry: Is the recorded value of inhibition at 1 µM equal to or greater than 90% for this compound? `Cc1cc(N=S(C)(C)=O)cc2ncnc(Nc3cccnc3O[C@@H]3CN(C)C[C@H]3O)c12`
Reply text: no

Inquiry: Is the recorded value of inhibition at 1 µM equal to or greater than 90% for this compound? CC1CCS(=O)(=Nc2cc(F)c3c(Nc4ccc(F)cc4O[C@H]4COC[C@@H]4O)ncnc3c2)C1 (some centres unmarked)
Reply text: yes

Inquiry: Is the recorded value of inhibition at 1 µM equal to or greater than 90% for this compound? `Cc1cc(N=S(C)(C)=O)cc2ncnc(Nc3ccc(Cl)nc3O[C@H]3COC[C@@H]3O)c12`
Reply text: yes

Inquiry: Is the recorded value of inhibition at 1 µM equal to or greater than 90% for this compound? `COc1cc(N=S2(=O)CCCC2)cc2ncnc(Nc3ccc(F)cc3O[C@H]3COC[C@@H]3O)c12`
Reply text: yes

Inquiry: Is the recorded value of inhibition at 1 µM equal to or greater than 90% for this compound? `O=S1(=Nc2cc(Cl)c3c(Nc4ccc(F)cc4O[C@@H]4COC[C@H]4O)ncnc3c2)CCCC1`
Reply text: yes

Inquiry: Is the recorded value of inhibition at 1 µM equal to or greater than 90% for this compound? `Cc1cc(N=S2(=O)CCCC2)cc2ncnc(Nc3ccc(F)cc3O[C@H]3CNC[C@@H]3O)c12`
Reply text: yes

Inquiry: Is the recorded value of inhibition at 1 µM equal to or greater than 90% for this compound? `CO[C@@H]1CN(CC(F)F)C[C@H]1Oc1ncccc1Nc1ncnc2cc(N=S3(=O)CCCC3)cc(C)c12`
Reply text: no

Inquiry: Is the recorded value of inhibition at 1 µM equal to or greater than 90% for this compound? COCCO[C@@H]1COC[C@@H]1Oc1cc(F)ccc1Nc1ncnc2cc(N=S(C)(C)=O)cc(C)c12 (racemic)
Reply text: no

Inquiry: Is the recorded value of inhibition at 1 µM equal to or greater than 90% for this compound? Cc1cc(N=S(C)(C)=O)cc2ncnc(Nc3ccc(F)cc3O[C@H]3COC[C@H]3OCCF)c12 (racemic)
Reply text: yes

Inquiry: Is the recorded value of inhibition at 1 µM equal to or greater than 90% for this compound? `CS(C)(=O)=Nc1cc(Br)c2c(Nc3ccc(F)cc3O[C@H]3COC[C@@H]3O)ncnc2c1`
Reply text: yes

Inquiry: Is the recorded value of inhibition at 1 µM equal to or greater than 90% for this compound? `O=S1(=Nc2cc(Cl)c3c(Nc4ccc(Cl)nc4O[C@H]4COC[C@@H]4O)ncnc3c2)CCC1`
Reply text: yes

Inquiry: Is the recorded value of inhibition at 1 µM equal to or greater than 90% for this compound? COc1cc(N=S(C)(=O)c2cccnc2)cc2ncnc(Nc3ccc(F)cc3O[C@H]3COC[C@@H]3O)c12 (some centres unmarked)
Reply text: no

Inquiry: Is the recorded value of inhibition at 1 µM equal to or greater than 90% for this compound? `CO[C@@H]1CN(C(C)=O)C[C@H]1Oc1ncccc1Nc1ncnc2cc(N=S3(=O)CCCC3)cc(C)c12`
Reply text: no

Inquiry: Is the recorded value of inhibition at 1 µM equal to or greater than 90% for this compound? `O=S1(=Nc2cc(Cl)c3c(Nc4cccnc4O[C@H]4COC[C@@H]4O)ncnc3c2)CCC1`
Reply text: yes

Inquiry: Is the recorded value of inhibition at 1 µM equal to or greater than 90% for this compound? `Cc1cc(N=S(C)(C)=O)cc2ncnc(Nc3ccc(F)cc3O[C@H]3CN(S(C)(=O)=O)C[C@@H]3O)c12`
Reply text: yes

Inquiry: Is the recorded value of inhibition at 1 µM equal to or greater than 90% for this compound? `Cc1cc(N=S2(=O)CCCCC2)cc2ncnc(Nc3ccc(F)cc3O[C@H]3COC[C@@H]3O)c12`
Reply text: yes

Inquiry: Is the recorded value of inhibition at 1 µM equal to or greater than 90% for this compound? `Cc1cc(N=S2(=O)CCCC2)cc2ncnc(Nc3cccnc3O[C@@H]3CNC[C@H]3O)c12`
Reply text: yes
